Target: procaspase-3 mutant ADD
Assay: Activation of safety catch mutant procaspase-3 (ADD)
measurement_type: EC50 (µM)

C=CCc1cccc(/C=N/NC(=O)CN2CCN(Cc3ccccc3)CC2)c1O = 131

###

Molecular target: procaspase-3 mutant DDA (Homo sapiens, UniProt P42574, D181A)
Sequence (P42574 29-175 limits assumed): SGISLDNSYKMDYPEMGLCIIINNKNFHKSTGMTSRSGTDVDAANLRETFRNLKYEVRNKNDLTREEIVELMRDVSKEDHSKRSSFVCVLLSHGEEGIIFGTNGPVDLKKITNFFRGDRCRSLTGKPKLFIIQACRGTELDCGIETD
Sequence (P42574 176-277 D181A limits assumed): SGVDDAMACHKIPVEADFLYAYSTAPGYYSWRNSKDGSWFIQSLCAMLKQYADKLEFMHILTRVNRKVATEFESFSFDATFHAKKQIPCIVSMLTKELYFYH
Assay: Activation of safety catch mutant procaspase-3 (DDA)
Type: biochemical
pEC50: −log10 of the molar value.
measurement_type: pEC50

C=CCc1cccc(/C=N/NC(=O)CN2CCN(Cc3ccccc3)CC2)c1O = 3.95

###

Test system: cells from adjacent non-cancerous tissue
Assay: Cell death in cells from adjacent non-cancerous colon tissue
Assay type: cell-based, human
Details: Homo sapiens, read-out: PAC-1, IC50, Normal (adjacent non-cancerous tissue), per patient, 18 patients
measurement_type: IC50

C=CCc1cccc(/C=N/NC(=O)CN2CCN(Cc3ccccc3)CC2)c1O = 5.02 to 9.98 µM

###

Tested on: PC-12
Assay: Cell death IC50 (MTS) in PC-12
Type: cell-based
Conditions: etoposide, 24 hours; read-out: IC50 for inducing death, PC-12
pIC50: −log10 of the molar value.
measurement_type: pIC50

COc1cc([C@@H]2c3cc4c(cc3[C@@H](O[C@@H]3O[C@@H]5CO[C@@H](C)O[C@H]5[C@H](O)[C@H]3O)[C@H]3COC(=O)[C@H]23)OCO4)cc(OC)c1O [etoposide] = > 6.00

From: patent US10166229B2
